Just for reference, patent US8148391B2 is where these values come from.

Target: c-Met (cytoplasmic domain) (Homo sapiens, UniProt P08581)
Construct: 10 ng/mL c-Met (cytoplasmic domain, Invitrogen Corporation #PV3143); purchased Invitrogen Corporation PV3143
Sequence (P08581 956-1390 limits assumed): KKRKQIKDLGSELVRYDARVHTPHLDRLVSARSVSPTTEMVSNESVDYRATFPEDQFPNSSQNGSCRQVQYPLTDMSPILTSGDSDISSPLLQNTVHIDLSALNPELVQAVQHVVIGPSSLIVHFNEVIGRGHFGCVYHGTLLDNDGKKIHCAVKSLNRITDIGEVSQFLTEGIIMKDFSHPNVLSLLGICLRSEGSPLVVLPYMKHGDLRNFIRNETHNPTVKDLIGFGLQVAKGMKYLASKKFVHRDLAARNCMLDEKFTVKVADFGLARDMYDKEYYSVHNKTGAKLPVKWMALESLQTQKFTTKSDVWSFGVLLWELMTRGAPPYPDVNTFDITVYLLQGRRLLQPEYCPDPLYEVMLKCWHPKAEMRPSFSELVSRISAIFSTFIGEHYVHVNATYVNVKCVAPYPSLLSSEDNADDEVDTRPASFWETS
Experiment: c-Met Kinase Assay (same methods as for ALK, with modifications)
Format: biochemical
Settings: 1 μM ATP (Km level); read-out: cMet Activity (c-Met Kinase Inhibition, IC50)
pIC50: −log10 of the molar value.
PARAMETER: pIC50

INSERT INTO results (compound, parameter, measured_result) VALUES
  ('COc1c(Nc2ncc(Cl)c(Nc3ccccc3S(=O)(=O)C(C)C)n2)ccc2c1CCCC(N1CCOCC1)C2 (centres unmarked) [Example 947]', 'pIC50', '< 5.00'),
  ('COc1cc2c(cc1Nc1ncc(Cl)c(Nc3ccccc3S(=O)(=O)C(C)C)n1)CCN(CC(F)F)CC2 [Example 827]', 'pIC50', '< 5.00'),
  ('COc1ccc(Nc2nc(Nc3cc4c(cc3OC)CCN(CC(=O)N(C)C)CC4)ncc2Cl)c(NS(C)(=O)=O)c1 [Example 821]', 'pIC50', '< 5.00'),
  ('COCCN1CCc2ccc(Nc3ncc(Cl)c(Nc4ccccc4-c4ncccc4C(F)(F)F)n3)cc2CC1 [Example 992]', 'pIC50', '5.00 to 6.00'),
  ('CNC(=O)C1C2C=CC(C2)C1Nc1nc(Nc2cc3c(cc2OC)CCN(CCOC)CC3)ncc1Cl (centres unmarked) [Example 604]', 'pIC50', '< 5.00'),
  ('COc1c(Nc2ncc(Cl)c(N[C@H]3[C@@H](C(N)=O)[C@@H]4C=C[C@H]3C4)n2)ccc2c1CCC(NCCO)CC2 (single isomer, unassigned) [Example 696]', 'pIC50', '< 5.00'),
  ('COc1cc2c(cc1Nc1ncc(Cl)c(N[C@@H]3CCCC[C@H]3NS(C)(=O)=O)n1)CCN(CC(C)(F)F)CC2 [Example 784]', 'pIC50', '< 5.00'),
  ('CC(C)S(=O)(=O)c1ccccc1Nc1nc(Nc2cccc3c2OCCCC3(C)C)ncc1Cl [Example 878]', 'pIC50', '< 5.00'),
  ('CCNC(=O)c1cccc(F)c1Nc1nc(Nc2cc3c(cc2OC)CCN(CC(C)(F)F)CC3)ncc1Cl [Example 789]', 'pIC50', '5.00 to 6.00'),
  ('CC1(C)CCC(=O)Nc2ccc(Nc3ncc(Cl)c(Nc4ccccc4-c4cc(=O)[nH]c(=O)[nH]4)n3)cc21 [Example 988]', 'pIC50', '< 5.00'),
  ('COc1cc2c(cc1Nc1ncc(Cl)c(Nc3ccccc3S(=O)(=O)N(C)C)n1)CCN(C(=O)C1COCCO1)CC2 (centres unmarked) [Example 634]', 'pIC50', '< 5.00');
